biological target: Mitogen-activated protein kinase 1 (Homo sapiens); conditions: Compound concentration 20.0 uM, Protein concentration 2.0 uM, Result type QC Liability
Description: Thermal Shift Assay. Domain: start/stop: M1-S360
In this scheme, each record receives a class according to its ΔTm; the ranges are low range: < -0.02 °C; mid range: ≥ -0.02 °C and < 0.2 °C; high range: ≥ 0.2 °C

>>> df
                                   molecule       label
0  CN(C)CC#Cc1ccc2[nH]c3c(c2c1)-c1nc(N)ncc1CCC3  high range
1  Cc1cc(CN)cc(C)c1-c1ncn(C)c1-c1ccnc2cc(F)ccc12  high range
2  c1ccc(C2CCN(c3cnc4c(N5CCOCC5)nccn34)CC2)cc1  high range
3  Cc1cccc(CC(=O)N2CCc3c2ccc(-c2cn(C)c4ncnc(N)c24)c3F)n1   mid range
4  CCOCCn1cc(C(=O)Nc2ccc(-n3nc(-c4cccnc4)cc3C(F)(F)F)cn2)ccc1=O   low range
5  O=C(Nc1ccc(Cl)c(-c2ccccn2)c1)c1cccc(COc2ccc(Br)cc2CNCCO)c1   low range
6  CCCCCCC(Sc1nc(Cl)cc(NCc2ccc(-c3ccccc3)cc2)n1)C(=O)O (stereo not given)   mid range
7  O=C(O)c1cccc(C2=C(c3cc(Cl)ccc3OCc3ccc(F)cc3F)CCC2)n1   low range
